target: HEK-293 cells expressing human recombinant adenosine A2A receptor (Homo sapiens (Human), UniProt P29274); test: cAMP assay, Assay 1 (HTRF kit); type: cell-based
Sequence (P29274 whole entry): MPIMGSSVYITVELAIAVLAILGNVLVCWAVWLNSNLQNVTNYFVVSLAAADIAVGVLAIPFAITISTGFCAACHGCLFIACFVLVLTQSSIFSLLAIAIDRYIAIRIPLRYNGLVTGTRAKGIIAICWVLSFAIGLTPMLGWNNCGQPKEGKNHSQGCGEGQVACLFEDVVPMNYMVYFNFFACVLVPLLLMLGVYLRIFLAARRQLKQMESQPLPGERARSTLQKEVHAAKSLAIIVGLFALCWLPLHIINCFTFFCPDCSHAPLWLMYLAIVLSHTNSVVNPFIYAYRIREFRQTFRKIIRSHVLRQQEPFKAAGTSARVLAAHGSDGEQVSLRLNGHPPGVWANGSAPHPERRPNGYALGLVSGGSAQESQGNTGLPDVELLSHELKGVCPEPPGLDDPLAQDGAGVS
measurementName: IC50 (nM)
Answer format: numeric, nM implied, no suffix.

Quick one: IC50 for Nc1cnc(-c2ccc(O)c(Cl)c2)c(-c2ccccc2)n1 [Compound 1.1] ?
6

* * *

Exercise: state measured A2A radioligand binding competition assay % residual binding @ 3000 nM for each of the compounds provided.
target: adenosine A2A receptor (Homo sapiens (Human), UniProt P29274); assay: A2A adenosine receptor radioligand binding competition assay (filter plates); conditions: 3000 nM

Quick one: A2A radioligand binding competition assay % residual binding @ 3000 nM for `Nc1cnc(-c2ccc3ncccc3c2)c(-c2ccc(F)cc2)n1` ?
104/ND/ND/ND %

Try the compound `Nc1cnc(-c2ccc3ocnc3c2)c(-c2ccccc2)n1`
100/ND/ND/ND %

Try the compound `Cc1ccc(-c2nc(N)cnc2-c2cc(Cl)c3ncccc3c2)o1`
5/ND/ND/ND %

Try the compound `Nc1cnc(-c2cc(Cl)c3[nH]cnc3c2)c(-c2ccccc2)n1`
18%

Try the compound `N#Cc1nc(-c2ccc3ncccc3c2)c(-c2ccccc2)nc1N`
4/ND/ND/ND %

Try the compound `Cc1ccc(-c2nc(N)cnc2-c2ccc3ncccc3c2)o1`
3/ND/ND/ND %

Try the compound `Nc1cnc(-c2ccc3ncccc3c2)c(-c2ccccc2)n1`
12%

* * *

molecular target: HEK-293 cells expressing human recombinant adenosine A2A receptor (Homo sapiens (Human), UniProt P29274); assay: cAMP assay, Assay 1 (HTRF kit); format: cell-based; conditions: HEK293, 100 nM, read-out: A2a cAMP (% inh @ 100 nM)
Exercise: state measured inhibition at 0.1 µM for each of the compounds provided.
Answer format: numeric, % implied, no suffix.

Quick one: inhibition at 0.1 µM for `CC(=O)Nc1cnc(-c2ccc(O)c(Cl)c2)c(-c2ccccc2)n1` ?
100

Try the compound `Nc1nc(-c2ccccc2)c(-c2ccc3ncccc3c2)nc1Br`
100

Try the compound `Nc1cnc(-c2cc(Cl)c3ncccc3c2)c(-c2ccccc2)n1`
99

Try the compound `Nc1cnc(-c2cc(Cl)c(O)c(Cl)c2)c(-c2ccccc2)n1`
100

Try the compound `N#Cc1nc(-c2ccc3ncccc3c2)c(-c2ccccc2)nc1N`
100

Try the compound `Nc1cnc(-c2ccc3ncccc3c2)c(-n2cccn2)n1`
24

Try the compound `Cc1nc2cc(-c3ncc(N)nc3-c3ccccc3)ccc2[nH]1`
49

Try the compound `Nc1cnc(-c2ccc3ncccc3c2)c(-c2ccccc2)n1`
94

Try the compound `N#Cc1cc(-c2ncc(N)nc2-c2ccccc2)ccc1O`
100

* * *

molecular target: HEK-293 cells expressing human recombinant adenosine A2A receptor (Homo sapiens (Human)); experiment: cAMP assay, Assay 1 (HTRF kit); type: cell-based; settings: HEK293, 100 nM, read-out: A2a cAMP (% inh @ 100 nM)
measurementName: inhibition at 0.1 µM (%)
Answer format: numeric, % implied, no suffix.

Quick one: inhibition at 0.1 µM for `Nc1cnc(-c2ccc3[nH]ccc3c2)c(-c2ccccc2)n1` ?
1.4

Try the molecule `Cc1ccc(-c2nc(N)cnc2-c2ccc3ncccc3c2)o1`
81

Try the molecule `Nc1cnc(-c2ccc(O)cc2)c(-c2ccccc2)n1`
100

Try the molecule `CC(C)(C)c1cc(-c2ncc(N)nc2-c2ccccc2)ccc1O`
47

Try the molecule `Cc1ccc(-c2nc(N)cnc2-c2cc(Cl)c3ncccc3c2)o1`
100

Try the molecule `Nc1cnc(-c2ccc3nccnc3c2)c(-c2ccccc2)n1`
0

Try the molecule `Nc1cnc(-c2ccc3ocnc3c2)c(-c2ccccc2)n1`
14

Try the molecule `Nc1cnc(-c2ccc3[nH]cnc3c2)c(-c2ccccc2)n1`
100

Try the molecule `Nc1cnc(-c2ccc3ncccc3c2)c(-c2ccc(F)cc2)n1`
0

Try the molecule `Nc1cnc(-c2cc(Cl)c3[nH]cnc3c2)c(-c2ccccc2)n1`
51

Try the molecule `Nc1cnc(-c2ccc(O)c(Cl)c2)c(-c2ccco2)n1`
100

Try the molecule `Nc1cnc(-c2ccc(O)c(Cl)c2)c(-c2ccccc2)n1`
97

* * *

Exercise: state measured inhibition at 0.1 µM for each of the molecules provided.
molecular target: human adenosine A2A membrane preparation (Homo sapiens (Human), UniProt P29274); assay: Adenosine A2A receptor radioligand binding assay (SPA beads, 3H-SCH 58261, 384 plate); settings: read-out: A2a binding % inh @ 100 nM
Answer format: numeric, % implied, no suffix.

Given the entry `Cc1cc(C)n(-c2nc(N)cnc2-c2ccc3ncccc3c2)n1` , what inhibition at 0.1 µM was observed with human adenosine A2A membrane preparation (Homo sapiens (Human), UniProt P29274)?
0

Try the molecule `Cc1ccn(-c2nc(N)c(C#N)nc2-c2cc(Cl)c3ncccc3c2)n1`
95

Try the molecule `Cc1ccc(-c2nc(N)c(C#N)nc2-c2ccc3ncccc3c2)s1`
82

Try the molecule `Cc1ccn(-c2nc(N)cnc2-c2ccc3[nH]ncc3c2)n1`
90

Try the molecule `Cc1ccc(-c2nc(N)c(C#N)nc2-c2ccc3ncccc3c2)o1`
88

Try the molecule `Cc1ncc(-c2nc(N)cnc2-c2ccc3ncccc3c2)s1`
86

Try the molecule `N#Cc1nc(-c2ccc3ncncc3c2)c(-c2ccccc2)nc1N`
83

Try the molecule `Cn1ccc(-c2nc(N)cnc2-c2ccc3ncccc3c2)n1`
76

Try the molecule `Nc1cnc(-c2ccc3ncccc3c2)c(-c2cc[nH]n2)n1`
31

* * *

Exercise: state measured inhibition at 3 µM for each of the compounds provided.
molecular target: human adenosine A2A membrane preparation (Homo sapiens (Human)); assay: Adenosine A2A receptor radioligand binding assay (SPA beads, 3H-SCH 58261, 384 plate); conditions: read-out: A2a binding % inh @ 3000 nM
Answer format: numeric, % implied, no suffix.

Given the entry `Nc1cnc(-c2ccc3ncccc3c2)c(-c2nccs2)n1` , what inhibition at 3 µM was observed with human adenosine A2A membrane preparation (Homo sapiens (Human))?
58

Try the compound `N#Cc1nc(-c2ccc3[nH]ncc3c2)c(-c2ccccc2)nc1N`
80

Try the compound `N#Cc1nc(-c2cc(Cl)c3[nH]cnc3c2)c(-c2ccccc2)nc1N`
83

Try the compound `Nc1nc(-c2ccccc2)c(-c2ccc3ncccc3c2)nc1O`
86

Try the compound `Nc1cnc(-c2ccc3ccccc3c2)c(-c2ccccc2)n1`
20

Try the compound `Nc1cnc(-c2ccc3c(c2)CCCN3)c(-c2ccccc2)n1`
30

Try the compound `Cc1ccc(-c2nc(N)cnc2-c2ccc3ncccc3c2)s1`
100

Try the compound `N#Cc1nc(-c2ccc3ncoc3c2)c(-c2ccccc2)nc1N`
83

Try the compound `Nc1nc(-c2ccccc2)c(-c2ccc3ncccc3c2)nc1C(=O)O`
11

Try the compound `Cc1cccc(CNC(=O)c2nc(-c3ccc4ncccc4c3)c(-c3ccccc3)nc2N)n1`
100

Try the compound `Cc1ccc(-c2nc(N)cnc2-c2cc(Cl)c3[nH]cnc3c2)o1`
91

Try the compound `Nc1cnc(-c2ccc3ncccc3c2)c(-c2ccccn2)n1`
48

Try the compound `Nc1cnc(-c2ccc3[nH]ncc3c2)c(-c2ccccc2)n1`
100

Try the compound `N#Cc1nc(-c2ccc3ncsc3c2)c(-c2ccccc2)nc1N`
89

Try the compound `Cc1ccn(-c2nc(N)cnc2-c2ccc3ncccc3c2)n1`
75

Try the compound `Nc1nc(-c2ccccc2)c(-c2ccc3ncccc3c2)nc1N1CCOCC1`
11

Try the compound `Nc1cnc(-c2ccc3ncsc3c2)c(-c2ccccc2)n1`
81

Try the compound `NC(=O)c1nc(-c2ccc3ncccc3c2)c(-c2ccccc2)nc1N`
80

Try the compound `Nc1cnc(-c2ccc3ncoc3c2)c(-c2ccccc2)n1`
64

Try the compound `CN1CCN(c2nc(-c3ccc4ncccc4c3)c(-c3ccccc3)nc2N)CC1`
24

* * *

Exercise: state measured inhibition at 0.001 µM for each of the compounds provided.
target: human adenosine A2A membrane preparation (Homo sapiens (Human)); experiment: Adenosine A2A receptor radioligand binding assay (SPA beads, 3H-SCH 58261, 384 plate); details: read-out: A2a binding % inh @ 1 nM
Answer format: numeric, % implied, no suffix.

Quick one: inhibition at 0.001 µM for `Cc1ccn(-c2nc(N)c(C#N)nc2-c2ccc3ncccc3c2)n1` ?
57

Try the compound `Nc1cnc(-c2cc(Cl)c3[nH]ncc3c2)c(-c2ccccc2)n1`
41

Try the compound `Cc1ccn(-c2nc(N)cnc2-c2ccc3ncsc3c2)n1`
40

Try the compound `Cc1ccn(-c2nc(N)cnc2-c2ccc3[nH]ncc3c2)n1`
42

Try the compound `Cc1ncc(-c2nc(N)cnc2-c2ccc3ncccc3c2)s1`
42

Try the compound `Cc1cc(C)n(-c2nc(N)cnc2-c2ccc3ncccc3c2)n1`
0

Try the compound `Cc1ccn(-c2nc(N)c(C#N)nc2-c2cc(Cl)c3ncccc3c2)n1`
50

Try the compound `Nc1cnc(-c2ccc3ncccc3c2)c(-c2cc[nH]n2)n1`
28
